# credit: ChEMBL document CHEMBL2384994

Tested on: RAW264.7
PROCEDURE_SUMMARY: Cytotoxicity against mouse RAW264.7 cells
Type: cell-based
ENDPOINT_NAME: Activity

- O=C1/C(=C/c2cccc(O)c2)CNC/C1=C\c1cccc(O)c1: Non-toxic
- CCCN1C/C(=C\c2ccc(OC)c(OC)c2)C(=O)/C(=C/c2ccc(OC)c(OC)c2)C1: Non-toxic
- COc1ccc(/C=C2\CNC/C(=C\c3ccc(OC)c(OC)c3)C2=O)cc1OC: Non-toxic
- COc1cc(/C=C2\CNC/C(=C\c3cc(OC)c(OC)c(OC)c3)C2=O)cc(OC)c1OC: Non-toxic
